Each recorded value in this set is attributed to PubChem BioAssay AID1851.

assayed_target: Cytochrome P450 2C19 (Homo sapiens) (UniProt P33261)
Sequence (P33261 whole entry, looked up): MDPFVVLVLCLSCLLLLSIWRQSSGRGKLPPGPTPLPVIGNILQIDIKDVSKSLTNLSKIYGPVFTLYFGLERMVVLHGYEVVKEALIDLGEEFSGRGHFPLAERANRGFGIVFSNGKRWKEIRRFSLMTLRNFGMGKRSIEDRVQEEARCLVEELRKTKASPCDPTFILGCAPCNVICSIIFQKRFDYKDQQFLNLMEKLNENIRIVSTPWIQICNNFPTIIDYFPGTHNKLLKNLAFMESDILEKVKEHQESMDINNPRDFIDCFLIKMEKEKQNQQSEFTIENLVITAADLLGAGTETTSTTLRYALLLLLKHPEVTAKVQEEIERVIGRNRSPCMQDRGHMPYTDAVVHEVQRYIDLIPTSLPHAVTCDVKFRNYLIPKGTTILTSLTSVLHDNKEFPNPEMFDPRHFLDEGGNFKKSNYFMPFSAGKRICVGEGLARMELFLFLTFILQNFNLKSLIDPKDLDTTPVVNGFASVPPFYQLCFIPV
measurement_protocol: Cytochrome panel assay with activity outcomes
condition_details: recombinant CYP, pro-luciferin dealkylation, luminescence, p450-cyp2c19; series mostly up to 57.1 µM
The whole screen tested about 16,000 compounds, of which about 5,800 (36%) were called active. About 23% were inconclusive and are not listed. Calls come from the whole dose curve; as a rule, active = well fitted curve in the direction sought with a large enough effect; inconclusive = small, poorly fitted or top-dose-only effect, or effect the other way; inactive = no such curve, though single readings can be large or run the other way. This is one part of the list.
One label from this list, please: 1 (active), 0 (inactive)

INSERT INTO measurements (molecule, assayed_target, cat) VALUES
  ('Cc1nnc(SCC(=O)NCC2CCCCC2)n(N)c1=O', 'Cytochrome P450 2C19 (Homo sapiens) (UniProt P33261)', 0);

Asked: Tell me the recorded outcome of this test for Fc1cccc(C2NC(=S)NC3=C2N2CCC3CC2)c1 (configuration not stated) .
Given back: 0

Asked: Tell me the recorded outcome of this test for `CCCCn1nc2cc(C(=O)NCc3ccc(C(F)(F)F)cc3C(F)(F)F)ccc2c1OCC` .
Given back: 1

Asked: Tell me the recorded outcome of this test for `CCOc1c2ccc(C(=O)NCc3cc(C(F)(F)F)cc(C(F)(F)F)c3)cc2nn1C` .
Given back: 1

Asked: Tell me the recorded outcome of this test for `COc1ccccc1-c1cc(Nc2ccn[nH]2)ncn1` .
Given back: 1

Asked: Tell me the recorded outcome of this test for `COc1ccc(N2CCN(C(=O)CSc3nnc4c5cc(C)ccc5n(C)c4n3)CC2)cc1` .
Given back: 1

Asked: Tell me the recorded outcome of this test for `CCC(=O)OCC(=O)[C@@]1(OC(=O)CC)[C@H](C)C[C@@H]2[C@H]3CCC4=CC(=O)C=C[C@]4(C)[C@]3(Cl)[C@@H](O)C[C@@]21C` .
Given back: 0

* * *

assayed_target: Cytochrome P450 2C19 (Homo sapiens) (UniProt P33261)
measurement_protocol: Cytochrome panel assay with activity outcomes
condition_details: recombinant CYP, pro-luciferin dealkylation, luminescence, p450-cyp2c19; series mostly up to 57.1 µM
The whole screen tested about 16,000 compounds, of which about 5,800 (36%) were called active. Inconclusive results (about 23%) are left out. Some of the results follow.
property_measured: AC50

For orientation, consider the following solved cases.
INSERT INTO results (molecule, assayed_target, measured_value) VALUES
  ('CNC(=O)c1nnn(Cc2ccccc2)c1NC(=O)C(F)(F)F', 'Cytochrome P450 2C19 (Homo sapiens) (UniProt P33261)', 'inactive'),
  ('O=C(CSc1ccc(Cl)cc1)Nc1cccc(NC(=O)c2ccco2)c1', 'Cytochrome P450 2C19 (Homo sapiens) (UniProt P33261)', '2.51 µM (active)'),
  ('COc1ccc2cc3cc(C(=O)NCc4ccc5c(c4)OCO5)oc3nc2c1', 'Cytochrome P450 2C19 (Homo sapiens) (UniProt P33261)', '10 µM (active)'),
  ('CCOC(=O)C1=C(C)NC2=C(C(=O)C(C(=O)OCC)C(c3ccc(OC)cc3)C2)C1c1ccccn1 (stereo not given)', 'Cytochrome P450 2C19 (Homo sapiens) (UniProt P33261)', '20 µM (active)'),
  ('Cc1cc(SCC(=O)c2cccs2)nc2c(C)cccc12', 'Cytochrome P450 2C19 (Homo sapiens) (UniProt P33261)', '3.16 µM (active)');

Parameter requested: AC50. Apply to each item below.
1. O=C(CCS(=O)(=O)c1cccs1)N1CCN(c2ccc(F)cc2)CC1
2. CC(=O)c1ccc(-n2nnnc2SCC(=O)Nc2cccc(NC(=O)c3ccco3)c2)cc1
3. Cc1ccc(-n2nnnc2SCC(=O)NNC(=O)c2ccco2)c(C)c1
4. C=C1CC[C@H](O)C/C1=C/C=C1\CCC[C@]2(C)[C@H]1CC[C@H]2[C@@H](C)/C=C\[C@@H](C)C(C)C
5. CCN1CCN(CCCNC(=O)c2cc3cc4ccc(OC)cc4nc3o2)CC1

Given back:
1: 0.891 µM (active); 2: 3.16 µM (active); 3: inactive; 4: inactive; 5: inactive

* * *

assayed_target: Cytochrome P450 2C19 (Homo sapiens) (UniProt P33261)
measurement_protocol: Cytochrome panel assay with activity outcomes; for activity, negative = inhibition: % is set by controls: 0 for no effect and ±100 for the full control effect
condition_details: recombinant CYP, pro-luciferin dealkylation, luminescence, p450-cyp2c19; series mostly up to 57.1 µM
The campaign covered roughly 16,000 compounds. About 5,800 (36%) were called active. Inconclusive results (about 23%) are left out. This is one part of the list.
property_measured: activity, negative = inhibition

INSERT INTO measurements (compound, measured_value) VALUES
  ('O=c1ccnc(SCc2ccc(Cl)cc2)[nH]1', '-32.7% [at 11.4 µM] (inactive)'),
  ('CC1(C)OC[C@@H]2O[C@H](n3cnc4c(N)nc(Cl)nc43)[C@@H](OS(C)(=O)=O)[C@@H]2O1', '8% [at 11.4 µM] (inactive)'),
  ('C[N+]1(NCC[N@@+]2(C)CCc3ccccc3C2)CCCCC1', '13.4% [at 11.4 µM] (inactive)'),
  ('O=C(O)CNC(=O)c1ccccc1O', '26.9% [at 11.4 µM] (inactive)'),
  ('CO[C@@H]1COC(=O)C/C=C\[C@H](C)[C@H](OC)COC(=O)[C@H]2CCCN2C(=O)C/C=C\[C@H]1C', '3.47% [at 11.4 µM] (inactive)');

Parameter requested: activity, negative = inhibition. Apply to each item below.
1. O=C(O)CN(CCN(CC(=O)O)CC(=O)O)CC(=O)O.[Mn]
2. O=C(O)CSCCc1ccccc1
3. COC(=O)/C=C\CCc1coc(/C=C\CNC(=O)OC)n1
4. O=C(O)c1ccc(C(=O)c2ccccc2C(=O)O)cc1C(=O)O

Given back:
["-2.62% [at 11.4 µM] (inactive)", "6.64% [at 11.4 µM] (inactive)", "31.7% [at 11.4 µM] (inactive)", "-5.18% [at 11.4 µM] (inactive)"]

Parameter requested: activity, negative = inhibition. Apply to each item below.
1. COC(=O)[C@@H]1O[C@@H](SCCN)[C@@H](O)[C@H](O)[C@H]1O
2. OCCN(CCO)c1ncnc2nc[nH]c12
3. O=C(O)[C@@H](O)c1ccc(F)cc1
4. CC(=O)/C(=N\N=C(N)N)c1ccccc1
5. OCCCN=C1CCCCC1
6. CCOC(=O)N/N=C1/C[C@@H](O)[C@@H](O)[C@@H]2[C@@H]3C(=O)N([C@@H](C)c4ccccc4)C(=O)[C@H]3CC[C@H]12

Given back:
1: 31.9% [at 11.4 µM] (inactive); 2: -23.9% [at 11.4 µM] (inactive); 3: 10.1% [at 11.4 µM] (inactive); 4: 102% [at 11.4 µM] (inactive); 5: 31.2% [at 11.4 µM] (inactive); 6: 12.9% [at 11.4 µM] (inactive)

* * *

assayed_target: Cytochrome P450 2C19 (Homo sapiens)
measurement_protocol: Cytochrome panel assay with activity outcomes
condition_details: recombinant CYP, pro-luciferin dealkylation, luminescence, p450-cyp2c19; series mostly up to 57.1 µM
The campaign covered roughly 16,000 compounds. About 5,800 (36%) were called active. Inconclusive results (about 23%) are left out. Some of the results follow.
property_measured: AC50

INSERT INTO assay_data (compound, assayed_target, measured_value) VALUES
  ('COn1c(SCc2cccc(Cl)c2)nc2ccccc2c1=O', 'Cytochrome P450 2C19 (Homo sapiens)', '2.24 µM (active)'),
  ('CCOC(=O)C1=C(C)N=C2SC(C(=O)OC)=CC(=O)N2C1c1ccc(F)cc1 (stereo unspecified)', 'Cytochrome P450 2C19 (Homo sapiens)', '1.26 µM (active)'),
  ('Clc1ccc(CN2CCCN(Cc3ccc(Cl)cc3)C2c2cc3ccccc3c3ccccc23)cc1', 'Cytochrome P450 2C19 (Homo sapiens)', '0.794 µM (active)'),
  ('CCCC[C@@H]1C[C@H]1C(NC(=O)c1cccs1)c1ccc(Cl)cc1 (stereo partly specified)', 'Cytochrome P450 2C19 (Homo sapiens)', '0.0794 µM (active)'),
  ('O=C(NCC(c1cccs1)N1CCOCC1)c1ccco1 (stereo unspecified)', 'Cytochrome P450 2C19 (Homo sapiens)', '8.91 µM (active)'),
  ('COn1c(SCc2ccc(C)cc2C)nc2ccccc2c1=O', 'Cytochrome P450 2C19 (Homo sapiens)', '3.55 µM (active)');

Parameter requested: AC50. Apply to each item below.
1. CCN(C(=O)CSc1nc2cc(C(=O)OC)ccc2c(=O)n1Cc1ccco1)c1cccc(C)c1
2. CCc1ccc(NC(=O)CSc2nc3cc(C(=O)OC)ccc3c(=O)n2Cc2ccco2)cc1
3. Cc1ccc(-n2c(SCc3ccc([N+](=O)[O-])cc3)nc3ccccc3c2=O)cc1

Given back:
1.41 µM (active)
inactive
inactive

Parameter requested: AC50. Apply to each item below.
1. CN1CCCN(C2C3CC4CC(C3)CC2C4)CC1 (stereo unspecified)
2. O=C(c1ccco1)N1CCC2(CCN(Cc3nccs3)CC2)CC1

Given back:
1. inactive
2. inactive
